Biological target: T1, cynoCD46-His (cynomolgus, UniProt A0A2K5WCL8 35-328)
T1 construct: extracellular domain; Immobilised by amine coupling on the SPR chip; not shown: His tag
T1 sequence: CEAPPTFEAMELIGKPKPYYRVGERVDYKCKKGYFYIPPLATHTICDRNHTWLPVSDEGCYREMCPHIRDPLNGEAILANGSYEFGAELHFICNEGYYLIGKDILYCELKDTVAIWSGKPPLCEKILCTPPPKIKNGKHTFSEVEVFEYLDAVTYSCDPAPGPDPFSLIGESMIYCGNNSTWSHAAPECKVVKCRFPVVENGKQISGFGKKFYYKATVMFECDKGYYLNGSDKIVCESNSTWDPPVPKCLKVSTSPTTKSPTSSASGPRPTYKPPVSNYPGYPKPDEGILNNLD
Test: SPR, cynoCD46-His immobilised, antibody as analyte, pH 7.4
koff values, listed per item
Give just the numeric value; s⁻¹ need not be written.

Problem: Give the measured koff of BA-133-04-03 (antibody, V domains shown, also called CPE hit BA133-04-03) VH: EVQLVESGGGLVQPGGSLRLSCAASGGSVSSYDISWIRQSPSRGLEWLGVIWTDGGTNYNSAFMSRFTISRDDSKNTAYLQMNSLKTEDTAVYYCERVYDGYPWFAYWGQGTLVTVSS VL: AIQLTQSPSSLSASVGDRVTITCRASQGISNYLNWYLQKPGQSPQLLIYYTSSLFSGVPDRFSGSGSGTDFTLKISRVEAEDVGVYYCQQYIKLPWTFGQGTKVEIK .
Result: 0.00153

Problem: Same again, this time with BA-133-04-01 (antibody, V domains shown, also called CPE hit BA133-04-01) VH: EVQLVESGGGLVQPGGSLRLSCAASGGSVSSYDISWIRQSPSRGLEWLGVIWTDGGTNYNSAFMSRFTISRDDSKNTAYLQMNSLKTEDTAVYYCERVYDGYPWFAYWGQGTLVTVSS VL: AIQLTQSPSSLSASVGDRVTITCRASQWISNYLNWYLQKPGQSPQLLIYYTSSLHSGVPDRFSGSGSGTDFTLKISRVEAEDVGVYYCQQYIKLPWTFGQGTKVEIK
Result: 0.000893
